Target: T1, GDF-11 (UniProt O95390 299-407)
T1 construct: also called growth and differentiation factor 11
T1 sequence (looked up): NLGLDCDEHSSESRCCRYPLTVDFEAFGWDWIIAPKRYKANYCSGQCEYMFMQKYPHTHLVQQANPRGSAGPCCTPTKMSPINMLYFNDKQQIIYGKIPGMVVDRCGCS
Assay: SPR (Biacore 8K), Fc protein captured on anti-human IgG, ligand injected
pKd: −log10 of the molar value.
Assay metric: pKd

Entry ActRIIA-A1 (SEQ ID NO: 104) chimera-Fc protein (Fc fusion, Tested as chimera-Fc protein; not shown: linker (if any) and Fc domain) GRGEAETRECLFFNANWEKDRTNQTGVEPCYGDKDKRRHCFATWKNISGSIEIVKQGCWLDDINCYDRTDCVEKKDSPEVYFCCCEGNMCNEKFSYFPEMEVTQPTS ; pKd = > 12.00

Entry ActRIIB-B1B2B3B4 (SEQ ID NO: 119) chimera-Fc protein (Fc fusion, Tested as chimera-Fc protein; not shown: linker (if any) and Fc domain) GRGEAETRECLFFNANWELERTNQTGVEPCEGEQDKRRHCFATWKNISGSIEIVKQGCWLDDFNCYDRQECVATEENPQVYFCCCEGNFCNERFTHLPEAGGPEVTYEPPPTAPT ; pKd = > 12.00

Entry ActRIIB-B2 (SEQ ID NO: 111) chimera-Fc protein (Fc fusion, Tested as chimera-Fc protein; not shown: linker (if any) and Fc domain) GRGEAETRECIYYNANWELERTNQTGVEPCEGEQDKRLHCYASWRNSSGTIELVKKGCWLDDFNCYDRQECVATEENPQVYFCCCEGNFCNERFTHLPEAGGPEVTYEPPPTAPT ; pKd = > 12.00

Entry ActRIIB-A2 (SEQ ID NO: 121) chimera-Fc protein (Fc fusion, Tested as chimera-Fc protein; not shown: linker (if any) and Fc domain) GRGEAETRECIYYNANWEKDRTNQSGLERCEGEQDKRLHCYASWRNSSGTIELVKKGCWLDDFNCYDRQECVATEENPQVYFCCCEGNFCNERFTHLPEAGGPEVTYEPPPTAPT ; pKd = > 12.00

Entry ActRIIB-B1B4 (SEQ ID NO: 117) chimera-Fc protein (Fc fusion, Tested as chimera-Fc protein; not shown: linker (if any) and Fc domain) GRGEAETRECLFFNANWELERTNQSGLERCEGEQDKRLHCYASWRNSSGSIEIVKQGCWLDDFNCYDRQECVATEENPQVYFCCCEGNFCNERFTHLPEAGGPEVTYEPPPTAPT ; pKd = 10.53

Entry ActRIIA-A6 (SEQ ID NO: 108) chimera-Fc protein (Fc fusion, Tested as chimera-Fc protein; not shown: linker (if any) and Fc domain) GAILGRSETQECLFFNANWEKDRTNQTGVEPCYGDKDKRRHCFATWKNISGSIEIVKQGCWLDDINCYDRTDCVEKEENPQVYFCCCEGNMCNEKFSYFPEMEVTQPTS ; pKd = > 12.00
